Field: apparent KD of MS2 coat protein. Provide a value for each of the sequences that follow.
Tested on: MS2 coat protein
Assay: apparent KD of MS2 coat protein; designed switch direction (-1 OFF switch, 1 ON switch): -1; higher = weaker reporter binding
Conditions: input ligand: microRNA oligo, concentration not stated
State the result as a value with its unit after it.

Fill in: apparent KD of MS2 coat protein of GUCAGCUCGUCAGGAUAUAUAUUAACAUGAGGAUCACCCAUGUAAGAUCAGCUUCGGCAGUUAAUAUAGAAGGGACGAGCUGAC [ENG2/14-B1] (Eterna round: R96, puzzle: Exclusion NG 2) is ___
154 nM

Give the measured apparent KD of MS2 coat protein of UUAAAUCAUGUAGGAUAUGCGUGGCGAAGCUAUGCAGAAGGACAUGAGGAUCACCCAUGUGCUUCCGUCUGCGUACAGAUGGUA [JL ENG1 1.13] (Eterna round: R96, puzzle: Exclusion NG 1) .
52.7 nM

# input sequence: CUUGUUUAUGUAGGAUAUGCCUGGCGUGCCUUUGCAGAAGGACAUGAGGAUCACCCAUGUAACAUGAGGCUCACCCAUGUCGCA [salish99_ExNG1_r04_104] (Eterna round: R96, puzzle: Exclusion NG 1) ; wanted: its apparent KD of MS2 coat protein
256 nM

* * *

Tested on: MS2 coat protein
Assay: apparent KD of MS2 coat protein; designed switch direction (-1 OFF switch, 1 ON switch): 1; higher = weaker reporter binding
Conditions: input ligand: microRNA oligo, concentration not stated
Measured property: apparent KD of MS2 coat protein (nM)
Give the quantity in nM, number only.

Sample ACAUGAGAUCUAGGAUAUAUAGUACCUACAUGUGACAUGAGGAUCACCCAUGUGGUAAGUAUGACAUAGAAGGAGAAGAUAUGU [Equivalance 96 - Jieux - Same State NG 2] (Eterna round: R96, puzzle: Same State NG 2) — what was its apparent KD of MS2 coat protein?
50.9

Consider the sequence shown here: UGUUGUAUUACAGGAUAUCUAUGUUUUUUAUUUAGAGAAGGGUAUUCACAUGAGGAUCACCCAUGUAUAUACGAGGAAGUUGUG [JMF's solution 57] (Eterna round: R96, puzzle: Same State NG 1) What is its recorded apparent KD of MS2 coat protein?
40.4

Given UUGAUGAACUGAGGAUAUCGAGUCGUCUGUUUUUACAUGAGGAUCACCCAUGUGGGUUGUGGUAUCGAGAAGGCAGAUUACUUA [JR_SSNG2_Sub031] (Eterna round: R96, puzzle: Same State NG 2) , state its recorded apparent KD of MS2 coat protein.
974

Requested field: apparent KD of MS2 coat protein. Item: CGGCUCCGUGGAGGAUAUGGGCCUGCCCGGGAUAACGGGCCUAACACAUGAGGAUCACCCAUGUCCCAGAAGGCCGCUGGAGCC [Enineseson] (Eterna round: R96, puzzle: Same State NG 2)
39.1

Suppose we examine the sequence UUUGCAUGACGAGGAUAUCAUUUAUUUCAUGUUUGAGAAGGCGUUUUUUUUAUUACCUUACAUGAGGAUCACCCAUGUGUCUGU [JR_SSNG1_Sub044] (Eterna round: R96, puzzle: Same State NG 1) ; what apparent KD of MS2 coat protein value has been reported?
39.6

Requested read-out: apparent KD of MS2 coat protein. Entry: AAACGCAGCAUAUCGCUGCGACAUGAGGAUCACCCAUGUACACAGGAUAUCGCAGCAUACCGCCGCGAGAAGGGUGAUCAAGAC [Anonlete] (Eterna round: R96, puzzle: Same State NG 3)
16.3

Please give the measured apparent KD of MS2 coat protein for this sequence: AAGAAACAUGAGGAUCACCCAUGUAGAAAUAUGGGAGGAUAUACGAGGACGAAAGUCAAAGUAGAAGGCCUAAGAA [Mat - Same State 1 - Meechl mod - D130] (Eterna round: R96, puzzle: Same State 1)
54.5

Item GGUGCCAAUAAAGCCUACAUGAGGAUCACCCAUGUAUGUAGGCAGGAUAUCGUUUGCUUUGCAAACGAGAAGGGCUGAGGCACC [JL SSNG3 1.18] (Eterna round: R96, puzzle: Same State NG 3) has what recorded apparent KD of MS2 coat protein?
28.6

Dear colleague, I am looking for the recorded apparent KD of MS2 coat protein of the following sequence: GUGGUCUGACAUGAGGAUCACCCAUGUGGAAUAAAUACGGGUUAGGAUAUCUUGAGGAUCACCCAAGAGAAGGGAUCGAUUGUU (Eterna round: R96, puzzle: Same State NG 3)
36.4

Give the measured apparent KD of MS2 coat protein of UUGUUUAGAAAUUAACAUGAGGAUCACCCAUGUAUUGGAUCAGAGGAUAUGCAUGUUUGAUUGUAGCAGAAGGCUGAUUGUUGA [JR_SSNG3_Sub029] (Eterna round: R96, puzzle: Same State NG 3) .
37.3

// apparent KD of MS2 coat protein lookup, key: GCUUCGGCGGUAGGAUAUCUAGGAUAUGGGAAGAGCUAAGCUUGGAAGUCACUUCACCCAGAAGGAGAGAAGGACACCUUCGGG [pwkr ssNG2 2FMN + F9.4] (Eterna round: R96, puzzle: Same State NG 2)
3.87

Sample UACUUAGUGGUAGGAUAUGUAGGAUAUGGCGAGAGCUAAGCUUGGAAGUCACUUCAGCCAGAAGGACAGAAGGACCACUCUCUC [pwkr ssNG2 2FMN + F9.12] (Eterna round: R96, puzzle: Same State NG 2) — what was its apparent KD of MS2 coat protein?
17.4

Param item = AUCCGAACCAUAGGAUAUACUGGCCUCGGGCCAGUAGAAGGGUGGGACAUGAGGAUCACCCAUGUAAAGCACAAUCAGUGCAAA [Ceramace] (Eterna round: R96, puzzle: Same State NG 1) ; retrieve measured apparent KD of MS2 coat protein.
119

Entry under review: GCAACAGGGUGAGGAUAUCUAUGGACCGACCAUAGAGAAGGCACUGGAAACACAUGAGGAUCACCCAUGUGCCAAAGAACAGUA [Eternabot solution 9] (Eterna round: R96, puzzle: Same State NG 1) . Reported apparent KD of MS2 coat protein?
22.4

Entry AGUCCAGCCUGAGCUGGACAAAAGCAUGUACAUGAGGAUCACCCAUGUCAUGUACAAGCUUUUUGCUCGAAAUAAUA [Mat - hsa-mir-208a - Mod of JL - D32] (Eterna round: R96, puzzle: Sensor for hsa-mir-208a) : reported apparent KD of MS2 coat protein = ?
14.4

# get_value(readout='apparent KD of MS2 coat protein', item= GGUGGGUUGCUGCCGGCACAUGAGGAUCACCCAUGUUUUGGGAAGGAUAUGGUACCUAUUUGGUACCAGAAGGUCCCGUUGGUG [salish99_SSNG3_r04_709] (Eterna round: R96, puzzle: Same State NG 3) )
449

Entry AAGUAGCGAGAGCUACACAAAAAGUUUGUACAUGAGGAUCACCCAUGUUGUACAAGCUUUUUGCUCGUCUUAAAAAA [Mat - Sensor - JL mod - D14] (Eterna round: R96, puzzle: Sensor for hsa-mir-208a) : reported apparent KD of MS2 coat protein = ?
11.6

Can you look up the measured apparent KD of MS2 coat protein of GAUUAACAUGAGGAUCACCCAUGUCGUUAUAUGGGAGGAUAUACGUGGACCGUAGUCCGCGUAGAAGGCCUAAUUG [Mat - Same State 1 - Mod of JL - D23] (Eterna round: R96, puzzle: Same State 1) for me?
115

* * *

Test system: K4 kissing-loop RNA reporter
Test: apparent KD of K4 kissing-loop reporter; higher = weaker reporter binding
Details: Eterna round: R107; input ligand: arginine 13.2 mM
Measured property: apparent KD of K4 kissing-loop reporter (nM)
Lab book: enter the figure in nM, no units written.

Quick one: apparent KD of K4 kissing-loop reporter for AGUGAUAUAUGAGGAUAUGGGUUUGUUAAAGAGUUAGUUUUAGUGUUGUUUGGUUAGUGAUGUUAUUUAGAAGGCGUGAGUGAUG [foopmullin] ?
82.5

// returns reported apparent KD of K4 kissing-loop reporter for input GAAAGAAAGAAUGAUACCAGACACCCGAGUGAUGUUCGGAGCAGAGUGAUGUUCUAAUAAGUCCCUUGGCAGCAUAAAAGAAAAG [Same State Theophylline B GF 1]
256

What value of apparent KD of K4 kissing-loop reporter has been recorded for this entry: AGUACAACUGCGGCCGCCACUCAACGCAGAUCAAAGAUCUGCAUUCACUCAGUGAUGUUGAGUGAGAGGACCGGGCAGUUGUACA [Omei KL Tryp B SS B v3]
718

* * *

Kindly state apparent KD of K4 kissing-loop reporter for each of the entries shown.
Tested on: K4 kissing-loop RNA reporter;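 note: bound reporter read as fluorescence of individual clusters on recovered sequencing chips by microscopy, with normalized cluster intensities fitted with a binding model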
Test: apparent KD of K4 kissing-loop reporter; higher = weaker reporter binding
Conditions: Eterna round: R107; input ligand: arginine 13.2 mM
Answers without a unit are incomplete; give the number and then its unit.

Would you mind telling me what apparent KD of K4 kissing-loop reporter value was observed for AAAAUAAACCAGUGAUGUUGGUGUCUAGAUACCAGCGAUAAUAAUCGCCCUUGGCAGCUACGGACGUACAAAAUAAGUACGUCCU [MatMod 10 - Jieux - Same State - Theophylline A] ?
375 nM

Entry GAGAUAGAGGCGGCCGCCACUAGUGAUGUUAGUGAUGUUAGAAAGAGAAUAGAACAGGGAUUUGAUAGGACCGGGCCAGAUGGAG [wwemullin] : reported apparent KD of K4 kissing-loop reporter = ?
51.3 nM

May I ask what apparent KD of K4 kissing-loop reporter has been recorded for AUUUUUUUAUCAGGAUAUUAGUGUUGGUUUGUUUUGUUAGUGAUGUUGAUAUUUGUUUUAUGUAUUUAAGAAGGGAUUUAGAUGU [viuupullin] ?
243 nM

Source listed as the supplement of paper PMC9170038.
